B1: FCHSD1 (parent)
chain: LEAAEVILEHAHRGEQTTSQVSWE

- Variants of: B1
- assay-remarks: protein stability index of a GFP-peptide fusion (GPS, HEK-293T) (PSI 1-6); higher = more stable;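 note: lentivirally expressed fusions sorted by FACS into six bins by GFP to DsRed ratio, PSI derived from sequencing read proportions per bin multiplied by bin number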
- conditions: c terminus: a fixed tail appended
Think of 4 as a floor: if protein stability index stands on it or above, it is 1; beneath it, 0.

S22M; 1
E24V; 0
Q20R; 1
I7R; 1
E24L; 0

Textbook exercise: given the entry V21N , state whether its protein stability index is greater than or equal to 4.
1

Textbook exercise: given the entry T18W , state whether its protein stability index is greater than or equal to 4.
0

Textbook exercise: given the entry L8I , state whether its protein stability index is greater than or equal to 4.
1
